Read-out record for SERT (Homo sapiens, UniProt P31645): pKi
Formally, pKi is defined as -log10 of the concentration c, with c in mol/L.

// below: answered compounds
compound="O=C1CCCC[C@]1(c1ccccc1)N1CCC1 [Compound 84R]" property_name=pKi result=6.22
compound="O=C1CCCC[C@@]1(c1ccccc1)N1CCC1 [Compound 84S]" property_name=pKi result=6.14
compound="CC(C)N[C@]1(c2ccccc2)CCCCC1=O [Compound 28S]" property_name=pKi result=4.91
compound="CN[C@@]1(c2ccccc2)CCCCC1=O [Compound 14R]" property_name=pKi result=4.40
compound="CN[C@]1(c2ccccc2)CCCCC1=O [Compound 14S]" property_name=pKi result=4.35
compound="O=C1CCCC[C@]1(c1ccccc1)N1CCCCC1 [Compound 26R]" property_name=pKi result=4.65

Task: Which pKi reading was recorded for the compound CC(C)N[C@@]1(c2ccccc2)CCCCC1=O [Compound 28R] ?
Result: 5.07

Task: Also O=C1CCCC[C@@]1(c1ccccc1)N1CCCCC1 [Compound 26S] ?
Result: 5.09

Task: Also O=C1CCCCC1(c1ccccc1)N1CCCC1 (racemic) ?
Result: 6.96
